- ASSAY INFO: A CellTox Green Cytotoxicity Assay to monitor cytotoxicity in HEK293 cells - 40 hour (AID 1224871); further: nearly all actives have a fitted effect of over 45% in size
- RUN PARAMETERS: CellTox Green fluorescence; series mostly up to 76.8 µM
Records with an inconclusive call do not appear. Active and inactive are the calls of the source. The call rests on the fitted dose curve; in most records, active means well fitted activation curve with a large enough effect in the repeat runs; inconclusive means weak or mixed curves; inactive means flat fitted curve, though single readings scatter.
Possible outcomes: active, inactive

{"COMPOUND": "CN(C(=O)CCCOc1ccc2[nH]c(=O)ccc2c1)C1CCCCC1", "CATEGORY LABEL": "inactive"}
{"COMPOUND": "CN1CCC[C@@H]1c1cccnc1", "CATEGORY LABEL": "inactive"}
{"COMPOUND": "CCOc1cc(OCC)c(C(=O)CCC(=O)O)cc1OCC", "CATEGORY LABEL": "inactive"}
{"COMPOUND": "CC(=O)c1ccc2c(c1)[C@H](NC(=O)c1ccc(F)cc1)[C@@H](O)C(C)(C)O2", "CATEGORY LABEL": "inactive"}
{"COMPOUND": "CCOC(=O)CC(C)C", "CATEGORY LABEL": "inactive"}
{"COMPOUND": "CC(=O)/C(C)=C/C1C(C)=CCCC1(C)C (stereo unspecified)", "CATEGORY LABEL": "active"}
